Test system: U2OS
Assay: Here: values are normalized to the positive (DMSO; basel flux = defined as 100% suppression) and negative (250nM Torin1; mTOR inhibitor; maximal inducer of autophagy defined as 0% suppression) control compounds and represented as % of ER-phagy suppression. […] The impact of autophagy induction on cells is complex and depends on the affected target. […] Of note, treatment concentrations may be sub-optimal for specific compounds, leading to false negative annotations.
Type: functional, Homo sapiens
Settings: Compound Concentration 1 uM, Timepoint 24 hours, Culturing Media DMEM, 1 % Penicillin/Streptomycin, 10% Fetal bovin serum Add-On: blasticidin, Screening Media Control DMEM, 10% Fetal bovin serum Add-On: 1 µg/ml Doxycyclin, Screening Media Samples DMEM, 10% Fetal bovin serum Add-On: 1 µg/ml Doxycyclin 250nM Torin1
measurement.kind: ER-phagy suppression
Write your answer as a measured quantity: the number, then the unit.

CN(C)C(=O)Cn1cc(-c2ccc(-c3cncc4ccccc34)cc2)cn1; 10.8163%
O=C(NCc1ccccc1)c1ccc(S(=O)(=O)NCc2ccccc2)cc1; -12.761%

[Q] Requested field: ER-phagy suppression. Item: O=c1cc(N2CCOCC2)oc2c1ccc1ccccc12
[A] 14.4083%

[Q] Let us now turn to CC(C)NC(=O)N1CC[C@H](NC2=Nc3cc(F)ccc3N(CC(F)F)c3ccc(Cl)cc32)C1
[A] -5.126%

[Q] Let us now turn to Cc1cc(NC(=O)c2cccc(S(F)(F)(F)(F)F)c2)cc(-n2ccn3nc(-c4cccnc4)cc23)c1
[A] 1.781%

====

Tested on: U2OS
Assay: Here: values are normalized to the negative (DMSO; defined as 0% autophagy induction) and positive (250nM Torin1; mTOR inhibitor; defined as maximal inducer of autophagy = 100%) control compounds and represented as % of autophagy induction. […] The impact of autophagy induction on cells is complex and depends on the affected target. As such, the magnitude of a phenotype may not be equally mirrored in the %-value of autophagy induction and vice versa. The dynamics of the induction may indicate the mode of activation: e.g. activation via phosphorylation or a signaling cascade may occur fast, while activation via transcription factors may take considerably longer. […] Of note, treatment concentrations may be sub-optimal for specific compounds, leading to false negative annotations.
Type: functional, Homo sapiens
Settings: Compound Concentration 2 uM, Timepoint 12 hours, Culturing Media DMEM, 1 % Penicillin/Streptomycin, 10% Fetal bovin serum Add-On: No, Screening Media Control DMEM, Screening Media Samples DMEM
measurement.kind: autophagy induction (%)
Hi! Could you send only the number? It should be in %, unit omitted.

// below: answered compounds
COc1ccccc1CN[C@H]1C2CCN(CC2)[C@H]1C(c1ccccc1)c1ccccc1; -21.7864
CSc1ccc(C(=O)N[C@@H]2CCCC[C@@H]2NC(=O)CNC(=O)c2cc(C(F)(F)F)ccc2NC(=O)NC(C)C)cc1; 6.41
Cc1c(P(=S)(c2ccccc2)c2ccccc2)n2ccccc2[n+]1C/C=C/c1ccccc1.[Br-]; -1.2597

Alright, here's another compound for you.
[Q] Query autophagy induction on U2OS for FC(F)(F)c1cccc(-c2noc(-c3cc(-c4ccccc4)c(C(F)(F)F)s3)n2)c1
[A] -1.566

====

Test system: TERT-RPE1
Experiment: Here: values are normalized to the negative (DMSO; defined as 0% autophagy induction) and positive (250nM Torin1; mTOR inhibitor; defined as maximal inducer of autophagy = 100%) control compounds and represented as % of autophagy induction. […] The impact of autophagy induction on cells is complex and depends on the affected target. As such, the magnitude of a phenotype may not be equally mirrored in the %-value of autophagy induction and vice versa. The dynamics of the induction may indicate the mode of activation: e.g. activation via phosphorylation or a signaling cascade may occur fast, while activation via transcription factors may take considerably longer. […] Of note, treatment concentrations may be sub-optimal for specific compounds, leading to false negative annotations.
Assay type: functional, Homo sapiens
Conditions: Compound Concentration 0.5 uM, Timepoint 36 hours, Culturing Media DMEM/F12 (1:1), 1 % Penicillin/Streptomycin, 10% Fetal bovin serum Add-On: No, Screening Media Control DMEM/F12 (1:1), Screening Media Samples DMEM/F12 (1:1)
Threshold check on autophagy induction: strictly below -10% is yes; on or above -10% is no.

Completed entries (count: 7):
Cc1c(C2=CCN(C(=O)N(C)C(C)C)CC2)nnn1-c1cccnc1F; yes
C/C(=N\NC(=O)[C@@H]1C(=O)NC[C@H]1c1ccccc1)c1cccc(Br)c1; no
O=C(O)C1CN(Cc2ccc(OCc3ccc(Cl)c(Cl)c3)cc2)C1; yes
O=C(Nc1ccc(Cl)cc1)Nc1cccc(-c2cccc(N3CCCC3)n2)c1; no
CNc1nc(NCc2ccc(NS(C)(=O)=O)cc2Cl)cc(-c2ccccn2)n1; no
Cc1nc(C(=O)N2CCC[C@H]2Cc2nnc(-c3ccccc3)o2)c(-c2ccccc2F)s1; no
C[C@]1(C(=O)N(CCCC(=O)O)Cc2cccc(Cl)c2)CCN1C(=O)c1csc2ccccc12; yes

[Q] is_below(autophagy induction, -10%) for CC(C)C[C@H](NC(=O)N1CCCCCC1)C(=O)N[C@H](Cc1cn(C)c2ccccc12)C(=O)N[C@H](Cc1ccccn1)C(=O)O ?
[A] yes
